Each recorded value in this set is attributed to BindingDB's records for doi:10.1021/np070447m.

target: UniProt:P08581; test: Inhibition of recombinant MET
Sequence (P08581 whole entry): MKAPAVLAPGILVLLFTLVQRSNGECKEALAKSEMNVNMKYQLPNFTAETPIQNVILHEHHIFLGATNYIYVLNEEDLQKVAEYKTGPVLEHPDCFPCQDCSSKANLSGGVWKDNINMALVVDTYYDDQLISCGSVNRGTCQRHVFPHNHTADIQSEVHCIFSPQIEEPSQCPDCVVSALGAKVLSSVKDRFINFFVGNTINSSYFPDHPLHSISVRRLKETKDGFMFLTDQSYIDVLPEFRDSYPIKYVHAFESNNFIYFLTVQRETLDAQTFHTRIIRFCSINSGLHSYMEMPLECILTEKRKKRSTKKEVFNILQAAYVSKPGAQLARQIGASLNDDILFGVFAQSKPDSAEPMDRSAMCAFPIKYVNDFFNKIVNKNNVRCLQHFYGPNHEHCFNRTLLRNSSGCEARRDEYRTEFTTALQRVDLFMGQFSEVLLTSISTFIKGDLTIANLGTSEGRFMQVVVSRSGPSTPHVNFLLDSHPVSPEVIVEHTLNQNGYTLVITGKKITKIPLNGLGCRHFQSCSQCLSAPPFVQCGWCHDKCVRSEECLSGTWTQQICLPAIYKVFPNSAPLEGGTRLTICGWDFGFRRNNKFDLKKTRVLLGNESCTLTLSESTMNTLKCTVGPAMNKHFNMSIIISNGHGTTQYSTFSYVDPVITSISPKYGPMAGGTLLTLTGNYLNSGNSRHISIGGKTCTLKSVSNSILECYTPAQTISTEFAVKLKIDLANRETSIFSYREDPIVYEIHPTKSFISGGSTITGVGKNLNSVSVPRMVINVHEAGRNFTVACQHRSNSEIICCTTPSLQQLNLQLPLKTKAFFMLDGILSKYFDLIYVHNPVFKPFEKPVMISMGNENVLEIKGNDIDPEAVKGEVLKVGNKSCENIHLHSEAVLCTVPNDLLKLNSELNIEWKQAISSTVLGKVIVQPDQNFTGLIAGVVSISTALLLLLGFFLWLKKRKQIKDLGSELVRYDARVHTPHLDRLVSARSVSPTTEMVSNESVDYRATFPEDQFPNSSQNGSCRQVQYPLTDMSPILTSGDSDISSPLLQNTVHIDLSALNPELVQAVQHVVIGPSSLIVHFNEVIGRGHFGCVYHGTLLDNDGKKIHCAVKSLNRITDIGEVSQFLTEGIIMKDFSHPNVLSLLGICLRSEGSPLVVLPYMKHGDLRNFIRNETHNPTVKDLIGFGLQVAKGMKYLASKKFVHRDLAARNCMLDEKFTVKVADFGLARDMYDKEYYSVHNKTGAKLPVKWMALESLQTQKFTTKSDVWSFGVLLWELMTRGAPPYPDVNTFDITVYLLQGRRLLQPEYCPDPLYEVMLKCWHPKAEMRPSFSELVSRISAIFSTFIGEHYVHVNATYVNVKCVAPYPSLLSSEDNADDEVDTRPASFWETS
pIC50: −log10 of the molar value.
Overview of reported pIC50 across a group of molecules:
MEASUREMENT LABEL: pIC50

INSERT INTO results (molecule, readout_value) VALUES
  ('COc1cc(O)c2c(c1)C1(OC2=O)C(=O)C(=O)CC1C (configuration not stated) [TALAROFLAVONE]', '< 4.44'),
  ('COc1cc(O)c2c(c1)-c1cc(O)c(O)cc1COC2=O [Alterlactone]', '< 4.46');

====

Overview of reported IC50 across a group of molecules:
Molecular target: Serine/threonine-protein kinase PLK4 (Homo sapiens, UniProt O00444)
Sequence (O00444 whole entry): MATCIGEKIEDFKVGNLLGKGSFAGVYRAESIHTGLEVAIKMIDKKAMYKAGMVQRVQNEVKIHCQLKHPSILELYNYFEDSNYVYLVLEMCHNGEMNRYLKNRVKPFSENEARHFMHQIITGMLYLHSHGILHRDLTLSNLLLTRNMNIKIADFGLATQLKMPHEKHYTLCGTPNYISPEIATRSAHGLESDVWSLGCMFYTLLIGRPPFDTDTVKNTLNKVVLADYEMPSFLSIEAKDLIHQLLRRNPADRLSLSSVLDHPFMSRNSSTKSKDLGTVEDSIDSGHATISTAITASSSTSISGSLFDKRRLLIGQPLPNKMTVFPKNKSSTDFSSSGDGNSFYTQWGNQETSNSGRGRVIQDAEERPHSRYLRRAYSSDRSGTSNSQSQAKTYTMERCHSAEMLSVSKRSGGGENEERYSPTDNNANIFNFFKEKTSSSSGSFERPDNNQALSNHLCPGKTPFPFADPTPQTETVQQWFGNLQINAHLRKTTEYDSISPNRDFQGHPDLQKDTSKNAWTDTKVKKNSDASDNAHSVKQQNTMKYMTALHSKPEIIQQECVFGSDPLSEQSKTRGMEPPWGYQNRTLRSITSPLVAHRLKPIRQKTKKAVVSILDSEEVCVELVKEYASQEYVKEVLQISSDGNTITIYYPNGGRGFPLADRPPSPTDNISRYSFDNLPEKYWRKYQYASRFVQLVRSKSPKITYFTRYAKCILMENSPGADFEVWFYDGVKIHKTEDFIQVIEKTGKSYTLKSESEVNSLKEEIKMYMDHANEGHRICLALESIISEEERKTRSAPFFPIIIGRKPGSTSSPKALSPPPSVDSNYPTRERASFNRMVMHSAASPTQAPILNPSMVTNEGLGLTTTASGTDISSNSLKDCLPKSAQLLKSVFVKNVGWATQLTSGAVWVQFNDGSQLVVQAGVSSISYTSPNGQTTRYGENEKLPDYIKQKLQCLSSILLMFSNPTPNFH
Assay: Inhibition of recombinant SAK
MEASUREMENT LABEL: IC50 (nM)

INSERT INTO results (molecule, readout_relation, readout_value) VALUES
  ('COc1cc(O)c2c(c1)C1(OC2=O)C(=O)C(=O)CC1C (centres undefined)', '>', 36200),
  ('COc1cc(O)c2c(=O)oc3c(O)c(O)cc(C)c3c2c1', '=', 2870),
  ('Cc1cc(O)cc2oc(=O)c3c(O)cc(OS(=O)(=O)O)cc3c12 [Alternariol 5-O-Sulfate]', '=', 1120),
  ('COc1cc(O)c2c(c1)-c1cc(O)c(O)cc1COC2=O', '>', 34600);
